# Tested on: A549 cells
# procedure-text: Cytotoxicity against A549 cells, Alamar Blue
# Format: cell-based
# condition-label: Supplementary Table 1; compound 0.5 mM; percentage of controls (n=1)
Property: A549 Cells Alamar Blue; scope: individual molecules

Some entries whose results are on file:
                                   molecule         recorded_metric                        result
0                      Cn1nc(-c2cccs2)cc1CO  A549 Cells Alamar Blue   65.8 percentage of controls
1                       Cl.c1ccc2c(c1)CCNC2  A549 Cells Alamar Blue   86.3 percentage of controls
2                   CC(=O)Oc1ccc(C)c2c1CCC2  A549 Cells Alamar Blue   93.1 percentage of controls
3                      CC1CCN(CC(C)(C)N)CC1  A549 Cells Alamar Blue  144.1 percentage of controls
4  OCc1ccc2c(c1)OCCO2 [compound 320, 2,3‐dihydro‐1,4‐benzodioxin‐6‐ylmethanol]  A549 Cells Alamar Blue   78.8 percentage of controls
5  CC12CCC(CC1=NO)C2(C)C (centres unmarked)  A549 Cells Alamar Blue   93.9 percentage of controls
6  CC12CC(=O)CC1(C)CC(=O)C2 (centres unmarked)  A549 Cells Alamar Blue   94.2 percentage of controls
7                    Cc1nc(-c2ccccc2)ncc1CO  A549 Cells Alamar Blue   85.4 percentage of controls

Data request: Fill blank: measured A549 Cells Alamar Blue of the molecule CC12CCC(O)(CC1)CC2=O is ____.
Data returned: 82.3 percentage of controls

Data request: Fill blank: measured A549 Cells Alamar Blue of the molecule COC(=O)c1cccc(CN)c1.Cl is ____.
Data returned: 107.3 percentage of controls

Data request: Fill blank: measured A549 Cells Alamar Blue of the molecule ON=C1CCCc2ccccc21 [compound 279, 1,2,3,4‐tetrahydronaphthalen‐1‐one oxime] is ____.
Data returned: 16.9 percentage of controls

----------
# Tested on: A549 cells
# procedure-text: Cytotoxicity against A549 cells, Alamar Blue
# Format: cell-based
# condition-label: Supplementary Table 1; compound 0.5 mM; percentage of controls (n=1)
Property: A549 Cells Alamar Blue; scope: individual compounds

                                 compound                        result
0       COC(=O)c1scc(C)c1N [compound 354]   32.3 percentage of controls
1  N#CCOc1ccc(C(F)(F)F)cn1 [compound 634]   87.2 percentage of controls
2         CC(C)(N)CN1CCCC1 [compound 142]   96.3 percentage of controls
3      NCc1csc(-c2cccs2)n1 [compound 599]   98.4 percentage of controls
4   CNCc1cc(-c2ccccc2)nn1C [compound 631]  100.2 percentage of controls

Data request: Fill blank: measured A549 Cells Alamar Blue of the compound COc1c(C(=O)O)csc1Cl [compound 575] is ____.
Data returned: 91.2 percentage of controls

Data request: Fill blank: measured A549 Cells Alamar Blue of the compound COC(=O)c1cc(C)[nH]c1C [compound 214] is ____.
Data returned: 64.4 percentage of controls

Data request: Fill blank: measured A549 Cells Alamar Blue of the compound CC(=O)c1cc(C)ccc1O [compound 184, 1‐(2‐hydroxy‐5‐methylphenyl)ethan‐1‐one] is ____.
Data returned: 53.1 percentage of controls

Data request: Fill blank: measured A549 Cells Alamar Blue of the compound CC(=O)c1ccc(-n2ccnc2)cc1 [compound 503] is ____.
Data returned: 94.5 percentage of controls

Data request: Fill blank: measured A549 Cells Alamar Blue of the compound Cc1nn(-c2ccccc2)c(C)c1CO [compound 636] is ____.
Data returned: 94.9 percentage of controls
